MIC values recorded for Klebsiella pneumoniae
# unit: µg/mL | format: bare number

sample.smiles: CCn1cc(C(=O)O)c(=O)c2cc(F)c(F)c(F)c21
measure.unit: µg/mL
MIC: 6.3

Data request: Request: MIC, test system Klebsiella pneumoniae, entry CCn1cc(C(=O)O)c(=O)c2cc(F)c(N3CCN(C(C)=N)CC3)nc21
Data returned: 6.3

Data request: Input CCn1cc(C(=O)O)c(=O)c2cc(F)c(N3CCN(CCN)CC3)cc21
Data returned: 50

Data request: Input CCn1cc(C(=O)O)c(=O)c2cc(F)c(N3CCN(CCCN(C)C)CC3)cc21
Data returned: 6.3

Data request: Input CCn1cc(C(=O)O)c(=O)c2c(N)nc(N3CCNCC3)nc21
Data returned: 25

Data request: Input CCn1cc(C(=O)O)c(=O)c2cc(F)c(/C=N/O)nc21
Data returned: 12.5

Data request: Input CCn1cc(C(=O)O)c(=O)c2cc(F)c(C)cc21
Data returned: 0.2

Data request: Input CCn1cc(C(=O)O)c(=O)c2cc(F)c(-n3cccc3)cc21
Data returned: 1.6

Data request: Input CCn1cc(C(=O)O)c(=O)c2cc(F)c(N3CCN(C(C)=N)CC3)cc21
Data returned: 1.6

Data request: Input CCn1cc(C(=O)O)c(=O)c2cc(F)c(N3CCSCC3)cc21
Data returned: 0.2

Data request: Input CCn1cc(C(=O)O)c(=O)c2cc(F)ccc21
Data returned: 1.6

---

Molecular target: DNA gyrase (Escherichia coli, UniProt P0AES4+P0AES6)
Assay: Inhibitory concentration in supercoiling inhibition Escherichia coli DNA gyrase assay
Format: protein-complex assay
Conditions: read-out: I50 (converted)
measurement.label: IC50 (µM)
# unit: µM | format: bare number

molecule: COn1cc(C(=O)O)c(=O)c2cc3c(cc21)OCO3 [MILOXACIN]
target.under.test: DNA gyrase (Escherichia coli, UniProt P0AES4+P0AES6)
measure.unit: µM
result.number: 190

Moving on to the next molecule.
Data request: Which IC50 value is on record for CCn1cc(C(=O)O)c(=O)c2cc(F)c(N3CCNCC3)c(F)c21 ?
Data returned: 18.7

---

Target: DNA gyrase (Escherichia coli) (UniProt P0AES6+P0AES4)
Could you mark each record condition met if its gyrase cleavage conc falls strictly under 20 µg/mL, and condition not met if it equals or exceeds it?

Study these solved cases before continuing.
sample.smiles: CCn1cc(C(=O)O)c(=O)c2cc(F)c(NC)cc21
class.name: condition met
--
sample.smiles: COn1cc(C(=O)O)c(=O)c2cc3c(cc21)OCO3
class.name: condition met
--
sample.smiles: CCn1cc(C(=O)O)c(=O)c2cc(F)c(N3CCSC3)nc21
class.name: condition met
--
sample.smiles: CCn1cc(C(=O)O)c(=O)c2cc(F)c(NCCN)nc21
class.name: condition not met
--
sample.smiles: CN1CCN(c2c(F)cc3c(=O)c(C(=O)O)cn(CCF)c3c2F)CC1
class.name: condition met

// switching to the query compound
Data request: Consider the compound CCOC(=O)N1CCN(c2nc3c(cc2F)c(=O)c(C(=O)O)cn3CC)CC1 . Is its gyrase cleavage conc strictly less than 20 µg/mL?
Data returned: condition met

---

log10 of MIC values recorded for Staphylococcus aureus
Please keep in mind that the values are log10 of MIC expressed in µg/mL.

A selection of reference data follows.
compound: CCn1cc(C(=O)O)c(=O)c2cc([N+](=O)[O-])c(C)nc21
target.under.test: Staphylococcus aureus
log10 of MIC: 1.40
--
compound: CCn1cc(C(=O)O)c(=O)c2cc(F)c(N3CCC(N4CCN(C)CC4)CC3)cc21
target.under.test: Staphylococcus aureus
log10 of MIC: 0.20
--
compound: CCn1cc(C(=O)O)c(=O)c2cc(F)c(N3CCSCC3)cc21
target.under.test: Staphylococcus aureus
log10 of MIC: -2.22
--
compound: CCn1cc(C(=O)O)c(=O)c2cc(F)c(N3CCN(CCN)CC3)nc21
target.under.test: Staphylococcus aureus
log10 of MIC: 1.70
--
compound: CCn1cc(C(=O)O)c(=O)c2ccc(-c3ccncc3)cc21 [ROSOXACIN]
target.under.test: Staphylococcus aureus
log10 of MIC: -0.40
--
compound: CCn1cc(C(=O)O)c(=O)c2cc(F)c(N3CCN(CCCN(C)C)CC3)cc21
target.under.test: Staphylococcus aureus
log10 of MIC: 1.10
--
compound: CCn1cc(C(=O)O)c(=O)c2cc(F)c(SCCN)cc21
target.under.test: Staphylococcus aureus
log10 of MIC: 1.40
--
compound: CCn1cc(C(=O)O)c(=O)c2cc(F)c(/C=N/N3CCN(C)CC3)nc21
target.under.test: Staphylococcus aureus
log10 of MIC: 1.40

Data request: Which log10 of MIC value is on record for CCOC(=O)N1CCN(c2nc3c(cc2F)c(=O)c(C(=O)O)cn3CC)CC1 ?
Data returned: 0.49

Data request: Input CCn1cc(C(=O)O)c(=O)c2ccc(/C=N/N3CCN(C)CC3)nc21
Data returned: 1.10

Data request: Input CCn1cc(C(=O)O)c(=O)c2cc(F)c(Cl)cc21
Data returned: 0.49

Data request: Input CCn1cc(C(=O)O)c(=O)c2ccc(N3CCNCC3)nc21
Data returned: 1.70

Data request: Input CCn1cc(C(=O)O)c(=O)c2cc(F)c(NC)cc21
Data returned: 1.10

---

Target: DNA gyrase (Escherichia coli) (UniProt P0AES6+P0AES4)
Could you mark each record yes (1) if its gyrase cleavage conc falls strictly under 6 µg/mL, and no (0) if it equals or exceeds it?

compound: CCn1cc(C(=O)O)c(=O)c2cc(F)c(N3CCC(C(N)=O)CC3)cc21
class.name: no (0)

Data request: Consider the compound CCn1cc(C(=O)O)c(=O)c2c(N)nc(N3CCCC3)nc21 . Is its gyrase cleavage conc strictly less than 6 µg/mL?
Data returned: no (0)

Data request: Input CCn1cc(C(=O)O)c(=O)c2cc(F)c(-n3cccc3)cc21 [IRLOXACIN]
Data returned: yes (1)

Data request: Input CCn1cc(C(=O)O)c(=O)c2cc(N)c(C)nc21
Data returned: no (0)

Data request: Input CCn1cc(C(=O)O)c(=O)c2cc(F)c(N3CCN(C(C)=N)CC3)nc21
Data returned: no (0)

Data request: Input CCn1cc(C(=O)O)c(=O)cc1C
Data returned: no (0)

Data request: Input CCn1cc(C(=O)O)c(=O)c2cc(F)c(N3CCSCC3)nc21
Data returned: no (0)

Data request: Input CCn1cc(C(=O)O)c(=O)c2cc([N+](=O)[O-])ccc21
Data returned: no (0)

---

Tested on: Escherichia coli
Assay: Antibacterial activity against Escherichia coli (vogel)
measurement.label: MIC (µg/mL)
# unit: µg/mL | format: bare number

A selection of reference data follows.
molecule: CCOC(=O)N1CCN(c2nc3c(cc2F)c(=O)c(C(=O)O)cn3CC)CC1
MIC [µg/mL]: 25
--
molecule: CCn1cc(C(=O)O)c(=O)c2cc(F)c(N3CCN(CCCN(C)C)CC3)cc21
MIC [µg/mL]: 6.3
--
molecule: CCn1cc(C(=O)O)c(=O)c2ccc(N3CCN(CC#N)CC3)cc21
MIC [µg/mL]: 50
--
molecule: COn1cc(C(=O)O)c(=O)c2cc3c(cc21)OCO3 [MILOXACIN]
MIC [µg/mL]: 0.4
--
molecule: CNn1cc(C(=O)O)c(=O)c2cc(F)c(N3CCN(C)CC3)cc21 [AMIFLOXACIN]
MIC [µg/mL]: 0.1
--
molecule: CCn1cc(C(=O)O)c(=O)c2cc(F)c(NC)cc21
MIC [µg/mL]: 3.1

Moving on to the next molecule.
Data request: Request: MIC, test system Escherichia coli, entry CCn1cc(C(=O)O)c(=O)c2cc(F)c(N3CCC(N4CCCC4)CC3)cc21
Data returned: 0.4

---

Test system: Escherichia coli
Assay: Antibacterial activity against Escherichia coli (vogel)
measurement.label: MIC

sample.smiles: CCn1cc(C(=O)O)c(=O)cc1C
MIC: > 100 µg/mL

Data request: Request: MIC, test system Escherichia coli, entry CCn1cc(C(=O)O)c(=O)c2c(N)nc(N3CCNCC3)nc21
Data returned: 6.3 µg/mL

Data request: Input CCn1cc(C(=O)O)c(=O)c2ccc(N3CCNCC3)nc21
Data returned: 6.3 µg/mL

Data request: Input CCn1cc(C(=O)O)c(=O)c2ccc(/C=N/O)nc21
Data returned: 12.5 µg/mL

Data request: Input CCn1cc(C(=O)O)c(=O)c2cc(F)c(N3CCNCC3)c(F)c21
Data returned: 0.2 µg/mL

Data request: Input CCn1cc(C(=O)O)c(=O)c2cc(F)c(N3CCSC3)cc21
Data returned: 0.2 µg/mL

Data request: Input CCn1cc(C(=O)O)c(=O)c2cc(F)c(N3CCSCC3)nc21
Data returned: 1.6 µg/mL
